tested on: NCI-H23 lung; assay: NCI tumour cell line growth inhibition, 48 h
observation type: TGI

Completed entries (count: 3):
[
  {
    "compound": "CC(=O)OCC(C)(COC(C)=O)N1C(=O)C2C3c4ccccc4C(c4ccccc43)C2C1=O (stereo unspecified)",
    "TGI": "> 100 µM"
  },
  {
    "compound": "CC(C)(C)OC(=O)NCCNCCNc1ccccc1",
    "TGI": "> 100 µM"
  },
  {
    "compound": "CCC(=O)Nc1ccc(C)c(-c2ccc(C(=O)NCC3CC3)cc2)c1",
    "TGI": "> 25 µM"
  }
]

Output measured TGI for this item: CCOC(OCC)N1C(=O)C2(C(OCC)OCC)CC3C(OC(=O)N3N)c3cccc1c32 (stereo unspecified) > 100 µM

Output measured TGI for this item: C/C=C(\CCOS(=O)(=O)c1ccc(C)cc1)[Si](C)(C)C > 100 µM

Output measured TGI for this item: Nc1n[n+](-c2ccccc2)no1 > 100 µM

====

tested on: HL-60(TB) leukemia; experiment: NCI tumour cell line growth inhibition, 48 h
observation type: GI50

[
  {
    "compound": "Cc1cc(-c2ccccn2)cc(C)c1/C=C/c1cncc(-c2nn[nH]n2)c1",
    "assay result": "> 25 µM"
  },
  {
    "compound": "Fc1cccc(-n2ccc(-c3ccccc3)nc2=S)c1",
    "assay result": "94 µM"
  },
  {
    "compound": "Oc1ccc(C2c3ccccc3Oc3ccccc32)c2cccnc12",
    "assay result": "1.94 µM"
  },
  {
    "compound": "N#Cc1c(N)nc(N2CCOCC2)c(C#N)c1-c1ccccn1",
    "assay result": "> 100 µM"
  },
  {
    "compound": "Cc1ccc(C(=O)/C(=C\\c2ccc([N+](=O)[O-])cc2)S(=O)Cc2ccc(Cl)cc2)cc1 (stereo unspecified)",
    "assay result": "2.47 µM"
  },
  {
    "compound": "CC1(N)CCN(c2cnc(-c3cccc(Cl)c3Cl)c(N)n2)CC1",
    "assay result": "41.9 µM"
  },
  {
    "compound": "CO/N=C(\\COc1ccc2oc(-c3ccccc3)cc(=O)c2c1)c1ccc(OC)cc1",
    "assay result": "6.16 µM"
  },
  {
    "compound": "CC(=O)[CH-]C(=O)c1ccccc1.CC(=O)[CH-]C(=O)c1ccccc1.Cc1cc([O-])ccc1Cl.Cc1cc([O-])ccc1Cl.[Ti+4]",
    "assay result": "13.7 µM"
  },
  {
    "compound": "C=C1C(=O)O[C@H]2[C@H]1CC/C(COC(=O)C(C)c1ccc(CC(C)C)cc1)=C\\CC[C@@]1(C)O[C@@H]21 (stereo partly specified)",
    "assay result": "0.647 µM"
  },
  {
    "compound": "CN1CCN(c2ccc(NC(=O)c3cncnc3Nc3ccc(OCc4ccccn4)c(Cl)c3)cc2)CC1",
    "assay result": "4.11 µM"
  }
]

Output measured GI50 for this item: O=C1/C(=C/c2ccc(Cl)cc2)CCC/C1=C\c1ccc(Cl)cc1 3.56 µM

Output measured GI50 for this item: O=C(Nc1cccc(Cl)c1)c1cccc(NC2=C(Cl)C(=O)N(Cc3ccccc3)C2=O)c1 12.6 µM

Output measured GI50 for this item: OCCNc1nc(Nc2ccc(Cl)c(Cl)c2)nc2ccccc12 8.69 µM

Output measured GI50 for this item: CCCN(CCC)c1ccc(/C=N/NC(=O)c2cccnc2)c(OC)c1 22.7 µM

Output measured GI50 for this item: O=[N+]([O-])c1cc(C(F)(F)F)ccc1Sc1ccc(C(F)(F)F)cc1[N+](=O)[O-] 3.32 µM

Output measured GI50 for this item: CCn1c(-c2nonc2N)nc2c(C#CC(C)(C)O)ncc(OC[C@H]3CCCNC3)c21 10.6 µM
